System: HEY
assay: Antiproliferative activity against human HEY cells after 3 to 7 days by SRB assay
Format: functional, cell-based
Calls of active or inactive are those of the source. No cut-off for these calls is given here.
reported_property: Activity

* C=C/C=C\[C@H](C)[C@H](OC(=O)NCCCNC(=O)c1ccc(N=[N+]=[N-])cc1)[C@@H](C)[C@H](O)[C@@H](C)C/C(C)=C\[C@H](C)[C@@H](O)[C@@H](C)/C=C\[C@@H](O)C[C@@H]1OC(=O)[C@H](C)[C@@H](O)[C@H]1C | Active
* CC(=O)O[C@H]1C(=O)[C@@]2(C)[C@H]([C@H](OC(=O)c3ccccc3)[C@]3(O)C[C@H](OC(=O)[C@H](O)[C@@H](NC(=O)c4ccccc4)c4ccccc4)C(C)=C1C3(C)C)[C@]1(OC(C)=O)CO[C@@H]1C[C@@H]2O | Active
* C=C/C=C\[C@H](C)[C@H](OC(=O)NCCCNC(=O)c1ccc(C2(C(F)(F)F)N=N2)cc1)[C@@H](C)[C@H](O)[C@@H](C)C/C(C)=C\[C@H](C)[C@@H](O)[C@@H](C)/C=C\[C@@H](O)C[C@@H]1OC(=O)[C@H](C)[C@@H](O)[C@H]1C | Active

###

Tested on: Hs-578T
assay: Induction of cell death in human Hs578T cells at EC80 concentration after 3 to 6 days by DAPI staining based flow cytometry
Format: functional
The source made the active and inactive calls. No cut-off for these calls is given here.
reported_property: Activity

- C=C/C=C\[C@H](C)[C@H](OC(=O)NCCCNC(=O)c1ccc(C2(C(F)(F)F)N=N2)cc1)[C@@H](C)[C@H](O)[C@@H](C)C/C(C)=C\[C@H](C)[C@@H](O)[C@@H](C)/C=C\[C@@H](O)C[C@@H]1OC(=O)[C@H](C)[C@@H](O)[C@H]1C: inactive
- C=C/C=C\[C@H](C)[C@H](OC(=O)NCCNC(=O)c1ccc(N=[N+]=[N-])cc1)[C@@H](C)[C@H](O)[C@@H](C)C/C(C)=C\[C@H](C)[C@@H](O)[C@@H](C)/C=C\[C@@H](O)C[C@@H]1OC(=O)[C@H](C)[C@@H](O)[C@H]1C: inactive
- C=C/C=C\[C@H](C)[C@H](OC(=O)NCCCNC(=O)c1cccc(N=[N+]=[N-])c1)[C@@H](C)[C@H](O)[C@@H](C)C/C(C)=C\[C@H](C)[C@@H](O)[C@@H](C)/C=C\[C@@H](O)C[C@@H]1OC(=O)[C@H](C)[C@@H](O)[C@H]1C: inactive
- C=C/C=C\[C@H](C)[C@H](OC(=O)NCCCCNC(=O)c1ccc(N=[N+]=[N-])cc1)[C@@H](C)[C@H](O)[C@@H](C)C/C(C)=C\[C@H](C)[C@@H](O)[C@@H](C)/C=C\[C@@H](O)C[C@@H]1OC(=O)[C@H](C)[C@@H](O)[C@H]1C: inactive
- C=C/C=C\[C@H](C)[C@H](OC(N)=O)[C@@H](C)[C@H](O)[C@@H](C)C/C(C)=C\[C@H](C)[C@@H](O)[C@@H](C)/C=C\[C@@H](O)C[C@@H]1OC(=O)[C@H](C)[C@@H](O)[C@H]1C [DISERMOLIDE]: inactive
- C=C/C=C\[C@H](C)[C@H](OC(=O)NCCCNC(=O)c1ccc(N=[N+]=[N-])cc1)[C@@H](C)[C@H](O)[C@@H](C)C/C(C)=C\[C@H](C)[C@@H](O)[C@@H](C)/C=C\[C@@H](O)C[C@@H]1OC(=O)[C@H](C)[C@@H](O)[C@H]1C: inactive
